Cited source: PubChem BioAssay (Tox21)

target: Beta-2 adrenergic receptor (Homo sapiens); assay: Adrenergic beta2 receptor (ADRB2) small molecule antagonists, cell-based qHTS assay (AID 1963592); conditions: CHO-ADRB2 cells, isoproterenol-stimulated cAMP HTRF ratio, 0.5 h; series mostly up to 92.4 µM; also: nearly all actives have a fitted effect of over 50% in size
Results filed as inconclusive are left out. Activity calls are given as the source filed them. Calls follow the shape of the full dose curve.
Observation type: outcome

Examples from the recorded data:
O=C(OCc1ccccc1)c1ccccc1O: inactive
Cc1cc(=O)[nH]c(C(C)C)n1: inactive
CC(O)COCC(C)O (stereo not drawn): inactive
CN(C)CCCN: inactive
COC(=O)/C=C\C(=O)OC: inactive
NS(=O)(=O)c1cc2c(cc1Cl)NC=NS2(=O)=O: inactive
Nc1ccc2c(c1)C(=O)c1ccccc1C2=O: inactive

// switching to the query compound
Reported outcome for "CCC(=O)OC/C=C/c1ccccc1" was inactive

* * *

experiment: p53 small molecule agonists, cell-based qHTS assay with human liver microsomes: qHTS cell viability counter screen (AID 1963579); conditions: p53RE-bla HCT-116 viability, ATP luminescence, 16 h, HLM; series mostly up to 66 µM; also: nearly all actives have a fitted effect of over 45% in size
Results filed as inconclusive are left out. The source made the active and inactive calls. The call rests on the fitted dose curve.
Reply using exactly one outcome from active, inactive

Examples with answers:
O=C(O)CCCC[C@@H]1SC[C@@H]2NC(=O)N[C@@H]21: inactive
CC(C)CC(=O)CC(C)CC(C)C (stereo not given): inactive
O=c1[nH]cnc2c1ncn2[C@H]1CC[C@@H](CO)O1: inactive
COc1ccc2c(c1)c(CC(=O)O)c(C)n2C(=O)c1ccc(Cl)cc1: inactive
Cc1cccc(C(=O)O)c1: inactive

Next up:
[in] Give the logged outcome of this assay for the following molecule: "Cc1ccc(C)c(OCCCC(C)(C)C(=O)O)c1"
[out] inactive

* * *

assay: Nuclear factor erythroid 2-related factor 2/antioxidant responsive element (Nrf2/ARE) small molecule agonists: qHTS cell viability counter screen in human keratinocytes (AID 1919968); settings: KeratinoSens HaCaT ARE cells viability, CellTiter-Fluor, 24 h; series mostly up to 92.4 µM; also: nearly all actives have a fitted effect of over 55% in size
Results filed as inconclusive are left out. Calls of active or inactive are those of the source. The call rests on the fitted dose curve; in most records, active means well fitted cell-killing curve with a large enough effect in the repeat runs; inconclusive means weak or mixed curves, or effect the other way; inactive means flat fitted curve, though single readings scatter.
Observation type: outcome

Examples from the recorded data:
C/C=C(C)/C=C/C=C(C)C: inactive
CC1(C)[C@@H]2CC[C@@]1(C)C(=O)C2: inactive
CN1CCC[C@H]1c1cccnc1: inactive
O=C(O)c1cccc([N+](=O)[O-])c1: inactive
CCO[Si](CCCNC(N)=O)(OCC)OCC: inactive
CCCC(=O)O: inactive
C=C[Si](OCCOC)(OCCOC)OCCOC: inactive
CCCCCCCC(=O)OC: inactive

Count: 6. Required value per item: outcome.
1. CCCCCCCCCC
2. CCC(O)OC(O)CC (stereo unspecified)
3. CCCCCNCCCCC
4. Cc1noc(NS(=O)(=O)c2ccc(N)cc2)c1C
5. CCCCCC/C=C/CCCCCCCC(=O)O
6. Cc1ccc(S(=O)(=O)O)cc1C

[out]
inactive
inactive
inactive
inactive
inactive
inactive

Count: 3. Required value per item: outcome.
1. O=c1ccc2ccccc2o1
2. CCOCCOCCO
3. Cc1ccc(S(=O)(=O)O)cc1

[out]
["inactive", "inactive", "inactive"]

Count: 8. Required value per item: outcome.
1. C#C[C@]1(O)CC[C@H]2[C@@H]3CCc4cc(O)ccc4[C@H]3CC[C@@]21C
2. CN1C(=O)CC[C@H]1c1cccnc1
3. CCCCC/C=C\C/C=C\CCCCCCCC(=O)O
4. CCCc1cc(=O)[nH]c(=S)[nH]1
5. CCCCOCCOCCSC#N
6. C/C=C/C=C/C(=O)O
7. NS(=O)(=O)c1cc2c(cc1Cl)NCNS2(=O)=O
8. Cc1ccc(Cl)cc1

[out]
inactive
inactive
inactive
inactive
inactive
inactive
inactive
inactive

Count: 6. Required value per item: outcome.
1. C=CC[N+](C)(C)CC=C
2. O=c1c(O)c(-c2ccc(O)cc2)oc2cc(O)cc(O)c12
3. CCCCCCCCC/C=C/CC1CC(=O)OC1=O (stereo unspecified)
4. Cc1ccc(N)c(S(=O)(=O)O)c1
5. C[C@]12CC[C@@H]3c4ccc(O)cc4CC[C@H]3[C@@H]1CC[C@H]2O
6. CC(=O)OC/C=C(C)/C=C/C=C(C)/C=C/C1=C(C)CCCC1(C)C

[out]
inactive
inactive
inactive
inactive
inactive
inactive
